test: small-molecule microarray binders of probe aWnt5a, primary screen, biochemical, biotinylated probe, 635/667 nm fluorescence (AID 1113);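 also: score merges 667 nm fluorescence intensity with signal-to-noise per printed feature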
measurement.setup: higher = more signal
Hi there, I'd appreciate the recorded composite z-score for every entry that follows.
One number for each entry.

compound	composite z-score
O=C1C2C=CC(C(O)c3cccc(O)c3)N(Nc3ccccc3)C2C(=O)N1c1ccccc1 (configuration not stated)	0.0077
COC(=O)[C@@]1(Cc2ccccc2)[C@H]2c3cc(C(=O)N4CCCC4)n(CCSCCO)c3C[C@H]2CN1C(=O)c1ccccc1	0.145
O=C1C2C=CC(C(O)C=Cc3ccc([N+](=O)[O-])cc3)N(Nc3ccccc3)C2C(=O)N1c1ccccc1 (configuration not stated)	0.0037
CCCCC(=O)N(CCN1CCOCC1)[C@@H]1CC(C(=O)NCCO)=C[C@H](Oc2c(I)cc(CO)cc2OC)[C@H]1O	-0.19

Report composite z-score for every entry below.
1. Cc1ccc(S[C@]2(C(=O)NCC(C)C)CC(=O)N(C3Cc4ccccc4C3)[C@@H]2c2ccc(CO)cc2I)cc1
2. CO[C@H]1O[C@H](CO)[C@@H](OC(=O)CCc2ccccc2)[C@H](OC(=O)c2cc3ccccc3[nH]2)[C@H]1OC(=O)c1cc2ccccc2[nH]1
3. NCCCCCNC(=O)[C@@H]1C[C@@H]2C(=O)N3CCC[C@H]3C(=O)N2[C@@H]1c1ccc(O)cc1
4. CC(=O)n1cc(C(O)C2C=CC3C(=O)N(c4ccccc4)C(=O)C3N2Nc2ccc(C(C)C)cc2)c2ccccc21 (configuration not stated)
5. COCCCNC(=O)[C@@H]1c2ccccc2C(=O)N(C2Cc3ccccc3C2)[C@H]1c1ccc(CO)cc1

1. -0.125
2. 0.055
3. 0.216
4. -0.0394
5. -0.152

* * *

test: A549 lung cancer cell viability effects, profiling panel, resazurin fluorescence, 24 h, PK04 Diversity Set (AID 1171); also: test concentration not given here
measurement.setup: higher = more signal, called active from +8 up or from −8 down
Hi there, I'd appreciate the recorded z-score for every entry that follows.
One number for each entry.

smiles.notation	quantitative.readout
COCCOC(=O)N1C(=O)[C@@]2(c3cc(C#CCCO)ccc31)[C@H](C(=O)N1CCCCCCC1)[C@H]1C(=O)O[C@H](c3ccccc3)[C@H](c3ccccc3)N1[C@@H]2c1ccccc1OCCO	1
Cc1cccc([C@H]2C[C@H]3C(Br)=C[C@@H]2C(=O)[C@]32CO2)c1	-0.581

Look up z-score for this compound: COc1ccc([Si](C)(C)[C@H]2[C@H](CCO)O[C@@]3(C(=O)N(Cc4ccccc4)c4ccc(N5CCOC5=O)cc43)[C@@H]2C)cc1
-1.94

* * *

test: MM1S cell viability effects, profiling panel, calcein-AM fluorescence, 48 h, basal (AID 1165);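 also: viability of MM1S multiple myeloma cells under basal unstimulated conditions; test concentration not given here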
measurement.setup: higher = more signal
Hi there, I'd appreciate the recorded z-score for every entry that follows.
One number for each entry.

Consider the reported z-score for these compounds:
> print(dat)
                            smiles.notation  quantitative.readout
1  COc1ccc([Si](C)(C)[C@H]2[C@H](CCO)O[C@@]3(C(=O)N(Cc4ccc(N5C(=O)c6ccccc6Oc6ccccc65)cc4)c4ccccc43)[C@@H]2C)cc1                 -2.79
2  COc1ccc([Si](C)(C)[C@@H]2[C@@H](CCn3cc([C@H](O)c4ccccc4)nn3)O[C@]3(C(=O)N(c4ccccc4)c4ccccc43)[C@H]2C)cc1                 -1.18

Look up z-score for this compound: COCC(=C=CC[C@H](O)c1cccc(OCCO)c1)C[C@H](O)COCc1ccccc1
0.103

All values here come from PubChem BioAssay.
